# credit: ChEMBL document CHEMBL2407049

List of Activity values.
System: Staphylococcus epidermidis
Experiment: Antibacterial activity against Staphylococcus epidermidis ATCC 12228 assessed as concentration required to inhibit bacterial growth after 24 hrs by TLC assay
Format: functional

[
  {
    "compound": "COC(=O)[C@H](CC(C)C)NC(=O)[C@@H]([C@H](Oc1ccc(C=O)cc1)c1ccccc1)N1CN(C)[C@@H](CC(C)C)C1=O (mixture of isomers)",
    "tgt": "Staphylococcus epidermidis",
    "Activity": "<50 µg"
  },
  {
    "compound": "COC(=O)[C@H](Cc1ccccc1)NC(=O)[C@H](NC(=O)[C@H](CC(C)C)NC(=O)OCc1ccccc1)[C@@H](O)c1ccccc1 (mixture of isomers)",
    "tgt": "Staphylococcus epidermidis",
    "Activity": "<50 µg"
  },
  {
    "compound": "COC(=O)[C@H](CC(C)C)NC(=O)[C@H](NC(=O)[C@H](CC(C)C)N(C)C)[C@@H](O)c1ccccc1 (mixture of isomers)",
    "tgt": "Staphylococcus epidermidis",
    "Activity": "<50 µg"
  }
]

* * *

System: Kocuria rhizophila
Assay: Antibacterial activity against Micrococcus luteus ATCC 9341 assessed as concentration required to inhibit bacterial growth after 24 hrs by TLC assay
Assay type: functional
List of Activity values.
assayMetric: Activity

[
  {
    "compound": "CC[C@H](C)[C@H](NC(=O)[C@H](NC(=O)[C@H](CC(C)C)N(C)C)[C@H](Oc1ccc(C=O)cc1)c1ccccc1)C(=O)OC",
    "assayMetric": "Activity",
    "result": "<50 µg"
  },
  {
    "compound": "COC(=O)[C@H](CC(C)C)NC(=O)[C@@H]([C@H](Oc1ccc(C=O)cc1)c1ccccc1)N1CN(C)[C@@H](CC(C)C)C1=O (mixture of isomers)",
    "assayMetric": "Activity",
    "result": "<50 µg"
  },
  {
    "compound": "COC(=O)[C@H](CC(C)C)NC(=O)[C@H](NC(=O)[C@@H](N)CC(C)C)[C@@H](O)c1ccccc1",
    "assayMetric": "Activity",
    "result": "<50 µg"
  },
  {
    "compound": "COC(=O)[C@H](Cc1ccccc1)NC(=O)[C@@H](NC(=O)[C@H](CC(C)C)N(C)C)[C@@H](Oc1ccc(C=O)cc1)c1ccccc1 (mixture of isomers)",
    "assayMetric": "Activity",
    "result": "<50 µg"
  },
  {
    "compound": "CC[C@H](C)[C@@H]1NC(=O)[C@@H](NC(=O)[C@H](CC(C)C)N(C)C)[C@H](c2ccccc2)Oc2ccc(cc2)/C=C\\NC1=O (mixture of isomers)",
    "assayMetric": "Activity",
    "result": ">50 µg"
  },
  {
    "compound": "COC(=O)[C@H](Cc1ccccc1)NC(=O)[C@H](NC(=O)[C@H](CC(C)C)N(C)C)[C@@H](O)c1ccccc1",
    "assayMetric": "Activity",
    "result": "<50 µg"
  },
  {
    "compound": "COC(=O)[C@H](CC(C)C)NC(=O)[C@H]([C@@H](Oc1ccc(C=O)cc1)c1ccccc1)N1CN(C)[C@@H](CC(C)C)C1=O (mixture of isomers)",
    "assayMetric": "Activity",
    "result": "<50 µg"
  },
  {
    "compound": "CC[C@H](C)[C@H](NC(=O)[C@@H](NC(=O)[C@H](CC(C)C)N(C)C)[C@@H](Oc1ccc(C=O)cc1)c1ccccc1)C(=O)OC",
    "assayMetric": "Activity",
    "result": "<50 µg"
  },
  {
    "compound": "CC[C@H](C)[C@H](NC(=O)[C@@H]([C@H](Oc1ccc(C=O)cc1)c1ccccc1)N1CN(C)[C@@H](CC(C)C)C1=O)C(=O)OC (mixture of isomers)",
    "assayMetric": "Activity",
    "result": "<50 µg"
  },
  {
    "compound": "COC(=O)[C@H](Cc1ccccc1)NC(=O)[C@@H](NC(=O)[C@@H](N)CC(C)C)[C@H](O)c1ccccc1",
    "assayMetric": "Activity",
    "result": "<50 µg"
  },
  {
    "compound": "COC(=O)[C@H](CC(C)C)NC(=O)[C@H](NC(=O)[C@H](CC(C)C)N(C)C)[C@H](Oc1ccc(C=O)cc1)c1ccccc1 (mixture of isomers)",
    "assayMetric": "Activity",
    "result": "<50 µg"
  }
]
